System: Aspergillus fumigatus
assay_procedure: In vitro antifungal assay (zone of inhibition, MIC)
Type: cell-based
value_kind: zone of inhibition at 50 µg/mL (mm)

[
  {
    "compound": "CNC(=S)NN=C(C)c1cc2ccc(OC)cc2oc1=O [H2L^2]",
    "numeric_value": 11.8
  },
  {
    "compound": "COc1ccc2cc(/C(C)=N\\NC(=S)Nc3ccccc3)c(=O)oc2c1 [H2L^4]",
    "numeric_value": 11.3
  },
  {
    "compound": "COc1ccc2cc(C(C)=NNC(N)=S)c(=O)oc2c1 [H2L^1]",
    "numeric_value": 11.2
  },
  {
    "compound": "CCNC(=S)NN=C(C)c1cc2ccc(OC)cc2oc1=O [H2L^3]",
    "numeric_value": 12.2
  }
]

----------
Collected Quenching constant kq values appear next to each entry.
tested_target: BSA (Bos taurus)
Construct: purchased HiMedia (Mumbai, India)
assay_procedure: BSA tryptophan fluorescence quenching
Type: binding, bovine
condition_info: BSA
value_kind: Quenching constant kq

[
  {
    "compound": "CCNC1=N[N+]2=C(C)c3[c](c4ccc(OC)cc4oc3=O)[Ru-4]2([C]#[O+])([P+](c2ccccc2)(c2ccccc2)c2ccccc2)([P+](c2ccccc2)(c2ccccc2)c2ccccc2)[S]1 [Complex 3, [Ru(7MAC-etsc)(CO)(PPh3)2]]",
    "value_kind": "Quenching constant kq",
    "result": "1.756 ± 0.080 × 10^12 M^−1 s^−1"
  },
  {
    "compound": "COc1ccc2[c]3c(c(=O)oc2c1)C(C)=[N+]1N=C(N)[S][Ru-4]31([C]#[O+])([P+](c1ccccc1)(c1ccccc1)c1ccccc1)[P+](c1ccccc1)(c1ccccc1)c1ccccc1 [Complex 1, [Ru(7MAC-tsc)(CO)(PPh3)2]]",
    "value_kind": "Quenching constant kq",
    "result": "1.674 ± 0.040 × 10^12 M^−1 s^−1"
  },
  {
    "compound": "COc1ccc2[c]3c(c(=O)oc2c1)C(C)=[N+]1N=C(Nc2ccccc2)[S][Ru-4]31([C]#[O+])([P+](c1ccccc1)(c1ccccc1)c1ccccc1)[P+](c1ccccc1)(c1ccccc1)c1ccccc1 [Complex 4, [Ru(7MAC-ptsc)(CO)(PPh3)2]]",
    "value_kind": "Quenching constant kq",
    "result": "1.454 ± 0.030 × 10^12 M^−1 s^−1"
  },
  {
    "compound": "CNC1=N[N+]2=C(C)c3[c](c4ccc(OC)cc4oc3=O)[Ru-4]2([C]#[O+])([P+](c2ccccc2)(c2ccccc2)c2ccccc2)([P+](c2ccccc2)(c2ccccc2)c2ccccc2)[S]1 [Complex 2, [Ru(7MAC-mtsc)(CO)(PPh3)2]]",
    "value_kind": "Quenching constant kq",
    "result": "2.382 ± 0.011 × 10^12 M^−1 s^−1"
  }
]

----------
tested_target: BSA (Bos taurus, UniProt P02769)
Construct: purchased HiMedia (Mumbai, India)
Sequence (P02769 25-607): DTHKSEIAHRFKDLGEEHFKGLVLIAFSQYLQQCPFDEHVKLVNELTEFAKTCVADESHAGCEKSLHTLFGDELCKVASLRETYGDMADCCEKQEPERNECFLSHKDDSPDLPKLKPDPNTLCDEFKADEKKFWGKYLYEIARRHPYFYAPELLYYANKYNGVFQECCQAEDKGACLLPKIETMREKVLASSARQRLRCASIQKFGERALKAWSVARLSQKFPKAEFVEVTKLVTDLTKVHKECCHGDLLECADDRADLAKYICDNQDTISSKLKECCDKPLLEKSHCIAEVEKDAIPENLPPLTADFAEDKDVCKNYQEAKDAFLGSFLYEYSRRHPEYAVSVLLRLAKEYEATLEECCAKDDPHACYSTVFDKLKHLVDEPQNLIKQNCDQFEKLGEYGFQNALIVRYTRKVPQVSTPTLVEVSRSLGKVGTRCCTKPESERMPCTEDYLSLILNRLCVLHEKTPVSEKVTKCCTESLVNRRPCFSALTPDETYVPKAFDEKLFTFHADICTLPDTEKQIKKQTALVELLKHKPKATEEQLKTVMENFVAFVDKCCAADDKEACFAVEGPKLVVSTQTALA
assay_procedure: Three-dimensional fluorescence spectra of BSA
Type: binding, bovine
condition_info: BSA 10 μM + compound 10 μM, pH 7.4, 298 K
Description: To investigate the micro environmental changes in BSA/HSA during interaction with the compounds, three dimensional fluorescence spectroscopic studies have been performed. […] The fluorescence intensity of peak ‘B’ corresponding to the tryptophan and tyrosine residues decreased with slight blue shift. […] Fig. 15 Three-dimensional fluorescence spectra of BSA in the absence and presence of ruthenium(II) complexes 1–4 (pH 7.4, 298 K, [BSA] = 10 μM, [complex] = 10 μM). […]

[
  {
    "molecule": "COc1ccc2[c]3c(c(=O)oc2c1)C(C)=[N+]1N=C(N)[S][Ru-4]31([C]#[O+])([P+](c1ccccc1)(c1ccccc1)c1ccccc1)[P+](c1ccccc1)(c1ccccc1)c1ccccc1 [Complex 1, [Ru(7MAC-tsc)(CO)(PPh3)2]]",
    "tested_target": "BSA (Bos taurus, UniProt P02769)",
    "Fluorescence peaks Intensity (F)": 395.56
  },
  {
    "molecule": "COc1ccc2[c]3c(c(=O)oc2c1)C(C)=[N+]1N=C(Nc2ccccc2)[S][Ru-4]31([C]#[O+])([P+](c1ccccc1)(c1ccccc1)c1ccccc1)[P+](c1ccccc1)(c1ccccc1)c1ccccc1 [Complex 4, [Ru(7MAC-ptsc)(CO)(PPh3)2]]",
    "tested_target": "BSA (Bos taurus, UniProt P02769)",
    "Fluorescence peaks Intensity (F)": 368.76
  },
  {
    "molecule": "CCNC1=N[N+]2=C(C)c3[c](c4ccc(OC)cc4oc3=O)[Ru-4]2([C]#[O+])([P+](c2ccccc2)(c2ccccc2)c2ccccc2)([P+](c2ccccc2)(c2ccccc2)c2ccccc2)[S]1 [Complex 3, [Ru(7MAC-etsc)(CO)(PPh3)2]]",
    "tested_target": "BSA (Bos taurus, UniProt P02769)",
    "Fluorescence peaks Intensity (F)": 304.43
  },
  {
    "molecule": "CNC1=N[N+]2=C(C)c3[c](c4ccc(OC)cc4oc3=O)[Ru-4]2([C]#[O+])([P+](c2ccccc2)(c2ccccc2)c2ccccc2)([P+](c2ccccc2)(c2ccccc2)c2ccccc2)[S]1 [Complex 2, [Ru(7MAC-mtsc)(CO)(PPh3)2]]",
    "tested_target": "BSA (Bos taurus, UniProt P02769)",
    "Fluorescence peaks Intensity (F)": 372.76
  }
]
